tested on: Canis familiaris; assay: Percent change in heart rate in anesthetized dogs at 1 mg/kg; assay type: functional, Canis lupus familiaris
Let's look at some compounds and their measured Change.
Express it in %; write the number only.

Below: 5 compounds and their reported Change.
>>> result_number("Cn1cc(-c2ccc(O)nn2)nc1-c1ccccc1")
63.5
>>> result_number("COc1ccc(-c2nc(C3=NNC(=O)CC3)cn2C)cc1OC")
8.5
>>> result_number("Cn1c(-c2ccc(O)nn2)cnc1-c1ccccc1")
-1.5
>>> result_number("Cl.O=C1CCC(c2cn(Cc3ccccc3)c(-c3ccccc3)n2)=NN1")
8
>>> result_number("COc1ccc(-c2nc(-c3ccc(O)nn3)cn2C)cc1OC")
0.5

Look up Change for this compound: Cn1c(C2=NNC(=O)CC2)cnc1-c1ccccc1
5.5

Repeat with Cn1cc(C2=NNC(=O)CC2)nc1-c1ccccc1
29.5

Repeat with Oc1ccc(-c2cn(Cc3ccccc3)c(-c3ccccc3)n2)nn1
8

----------
tested on: Canis familiaris; assay: Percent change in blood pressure in anesthetized dogs at 1 mg/kg; format: functional, Canis lupus familiaris
Endpoint: Change
Please don't drop the unit; write it after the number.

Below: 5 molecules and their reported Change.
>>> result("O=C1CCC(c2ccc(-n3ccnc3)cc2)=NN1 [IMAZODAN]")
"-22.4%"
>>> result("Cn1c(-c2ccc(O)nn2)cnc1-c1ccccc1")
"-2.5%"
>>> result("Cn1cc(-c2ccc(O)nn2)nc1-c1ccccc1")
"-31.25%"
>>> result("Cn1c(C2=NNC(=O)CC2)cnc1-c1ccccc1")
"-2.25%"
>>> result("COc1ccc(-c2nc(C3=NNC(=O)CC3)cn2C)cc1OC")
"1.5%"

Look up Change for this molecule: Cl.O=C1CCC(c2cn(Cc3ccccc3)c(-c3ccccc3)n2)=NN1
-4.75%

Repeat with Cn1cc(C2=NNC(=O)CC2)nc1-c1ccccc1
-31.8%

Repeat with COc1ccc(-c2nc(-c3ccc(O)nn3)cn2C)cc1OC
-4.5%

----------
test system: Canis familiaris; assay: Percent change in blood pressure in anesthetized dogs at 0.31 mg/kg; type: functional, Canis lupus familiaris
Endpoint: Change
Please don't drop the unit; write it after the number.

Below: 3 compounds and their reported Change.
>>> result("O=C1CCC(c2ccc(-n3ccnc3)cc2)=NN1")
"-13.2%"
>>> result("Cl.O=C1CCC(c2cn(Cc3ccccc3)c(-c3ccccc3)n2)=NN1")
"-4.5%"
>>> result("Cn1cc(C2=NNC(=O)CC2)nc1-c1ccccc1")
"-23.2%"

Notebook entry, Canis familiaris assay: Change of COc1ccc(-c2nc(C3=NNC(=O)CC3)cn2C)cc1OC = ?
0%

Repeat with Cn1c(C2=NNC(=O)CC2)cnc1-c1ccccc1
0%

Repeat with COc1ccc(-c2nc(-c3ccc(O)nn3)cn2C)cc1OC
-1%

----------
system: Canis familiaris; experiment: Percent change in heart rate in anesthetized dogs at 0.31 mg/kg; format: functional, Canis lupus familiaris
Label rule, in plain words: Change of 20% and up is condition met, under 20% is condition not met.

Before answering, review these 9 worked examples.
>>> assigned_class("COc1ccc(-c2nc(C3=NNC(=O)CC3)cn2C)cc1OC")
"condition not met"
>>> assigned_class("Oc1ccc(-c2ccc(-c3ncc[nH]3)cc2)nn1")
"condition met"
>>> assigned_class("Cn1cc(-c2ccc(O)nn2)nc1-c1ccccc1")
"condition met"
>>> assigned_class("Cl.O=C1CCC(c2cn(Cc3ccccc3)c(-c3ccccc3)n2)=NN1")
"condition not met"
>>> assigned_class("O=C1CCC(c2ccc(-n3ccnc3)cc2)=NN1")
"condition not met"
>>> assigned_class("Oc1ccc(-c2cn(Cc3ccccc3)c(-c3ccccc3)n2)nn1")
"condition not met"
>>> assigned_class("Cn1c(C2=NNC(=O)CC2)cnc1-c1ccccc1")
"condition not met"
>>> assigned_class("COc1ccc(-c2nc(-c3ccc(O)nn3)cn2C)cc1OC")
"condition not met"
>>> assigned_class("Cn1cc(C2=NNC(=O)CC2)nc1-c1ccccc1")
"condition met"

We now examine a further compound.
Reported Change reaches at least 20% for Cn1c(-c2ccc(O)nn2)cnc1-c1ccccc1 ?
condition not met

----------
test system: Canis familiaris; assay: Percent change in blood pressure in anesthetized dogs at 0.31 mg/kg; type: functional, Canis lupus familiaris
Let's look at some molecules and their measured Change.
Express it in %; write the number only.

Below: 3 molecules and their reported Change.
>>> result_number("Cn1cc(-c2ccc(O)nn2)nc1-c1ccccc1")
-15.75
>>> result_number("Cn1c(-c2ccc(O)nn2)cnc1-c1ccccc1")
-0.25
>>> result_number("Oc1ccc(-c2ccc(-c3ncc[nH]3)cc2)nn1")
-26.5

As a next step, examine the molecule that follows.
Notebook entry, Canis familiaris assay: Change of Oc1ccc(-c2cn(Cc3ccccc3)c(-c3ccccc3)n2)nn1 = ?
3

----------
Let's look at some molecules and their measured IC50.
target: Phosphodiesterase 3 (Cavia porcellus); experiment: Inhibition of guinea pig phosphodiesterase type III
Express it in µM; write the number only.

Below: 3 molecules and their reported IC50.
>>> result_number("COc1ccc(-c2nc(-c3ccc(O)nn3)cn2C)cc1OC")
75
>>> result_number("Cn1c(C2=NNC(=O)CC2)cnc1-c1ccccc1")
38
>>> result_number("Cn1cc(C2=NNC(=O)CC2)nc1-c1ccccc1")
12.1

As a next step, examine the molecule that follows.
Look up IC50 for this molecule: Cn1c(-c2ccc(O)nn2)cnc1-c1ccccc1
160

Numbers sourced from ChEMBL document CHEMBL1123399.
